Ref: ChEMBL document CHEMBL4732179

Tested on: Influenza A virus (A/Puerto Rico/8/1934(H1N1))
assay.info: Inhibition of Influenza A virus A/Puerto Rico/8/1934(H1N1) neuraminidase at 40 ug/ml using MUNANA as substrate measured after 60 mins by fluorescence assay relative to control
condition.description: dose 40.0 µg/ml
Threshold check on inhibition: at or above 50% gives Condition met, strictly below gives Condition not met.

Solved entries (count: 2):
CCOC(=O)c1sc(/N=C2\NC(=O)/C(=C/c3ccccc3C(=O)O)S2)nc1C ... Condition not met
CCOC(=O)c1sc(/N=C2\NC(=O)C[Se]2)nc1C ... Condition not met

[ask] Check if inhibition >= 50% (inclusive). Item: CCOC(=O)c1sc(/N=C2\NC(=O)/C(=C/c3ccc4c(c3)OCO4)S2)nc1C
[reply] Condition not met

[ask] Check if inhibition >= 50% (inclusive). Item: COc1cccc(/C=C2\S/C(=N/c3nc(C(C)C)c(C(C)=O)s3)NC2=O)c1O
[reply] Condition met

[ask] Check if inhibition >= 50% (inclusive). Item: CC(=O)c1sc(/N=C2\NC(=O)CS2)nc1C
[reply] Condition met

[ask] Check if inhibition >= 50% (inclusive). Item: CCOC(=O)c1sc(/N=C2\NC(=O)/C(=C/c3cccc([N+](=O)[O-])c3)S2)nc1C
[reply] Condition not met

[ask] Check if inhibition >= 50% (inclusive). Item: CC(C)(C)c1nc(/N=C2\NC(=O)CS2)sc1Br
[reply] Condition met

[ask] Check if inhibition >= 50% (inclusive). Item: CCOC(=O)c1sc(NC(=S)NC(=O)/C=C/c2ccccc2)nc1C
[reply] Condition not met

[ask] Check if inhibition >= 50% (inclusive). Item: CCOC(=O)c1sc(/N=C2\NC(=O)CS2)nc1C(F)(F)F
[reply] Condition not met

[ask] Check if inhibition >= 50% (inclusive). Item: CC(=O)c1sc(/N=C2\NC(=O)/C(=C/c3cccc([N+](=O)[O-])c3)S2)nc1C
[reply] Condition met

[ask] Check if inhibition >= 50% (inclusive). Item: CC(C)(C)c1csc(/N=C2\NC(=O)CS2)n1
[reply] Condition not met

[ask] Check if inhibition >= 50% (inclusive). Item: COc1cc(/C=C2\S/C(=N/c3nc(C(C)C)c(C(C)=O)s3)NC2=O)ccc1O
[reply] Condition met

[ask] Check if inhibition >= 50% (inclusive). Item: CC(=O)c1sc(/N=C2\NC(=O)/C(=C/c3ccc4c(c3)OCO4)S2)nc1C
[reply] Condition met

[ask] Check if inhibition >= 50% (inclusive). Item: CCOC(=O)c1sc(/N=C2\NC(=O)/C(=C/c3cc([N+](=O)[O-])cc([N+](=O)[O-])c3O)S2)nc1C
[reply] Condition met

[ask] Check if inhibition >= 50% (inclusive). Item: CCOC(=O)Cc1nc(/N=C2\NC(=O)/C(=C/c3ccc(O)c(OC)c3)S2)sc1C
[reply] Condition met

[ask] Check if inhibition >= 50% (inclusive). Item: CCOC(=O)c1sc(/N=C2\NC(=O)C(C)S2)nc1C (centres undefined)
[reply] Condition not met

[ask] Check if inhibition >= 50% (inclusive). Item: Cc1nc(/N=C2\NC(=O)CS2)sc1C(=O)OC(C)(C)C
[reply] Condition met
